assay: Effect of PVP on the solubilization of drugs in aqueous HPβCD solutions (Example 7); details: aqueous 0.25% pvp
Measured solubility at 72 h, listed per entry.
Reply with just the number (in µg/mL).

# solubility at 72 h (molecule: C[C@@H]1C[C@H]2[C@@H]3CCC4=CC(=O)C=C[C@]4(C)[C@@]3(F)[C@@H](O)C[C@]2(C)[C@@]1(O)C(=O)CO ) is 330

Recorded result, NC(=O)N1c2ccccc2C=Cc2ccccc21 [Carbamazepine, carbamazepine] , solubility at 72 h: 310

###

assay: physchem; conditions: 0.25% pvp + 10% hpβcd
readout type: solubility

Example entries begin here.
>  <molecule>
C=C1CC[C@H](O)C/C1=C/C=C1\CCC[C@]2(C)[C@@H]([C@H](C)CCCC(C)C)CC[C@@H]12

>  <solubility>
760 µg/mL

$$$$
>  <molecule>
CC12CCC(CC1=O)C2(C)C (stereo not drawn)

>  <solubility>
13700 µg/mL

$$$$

Consider now this further molecule.
Lab book: solubility of CN(C)c1ccc(N=Nc2ccccc2)cc1 noted as 240 µg/mL

###

Form field: solubility ratio (one value per entry).
test: Effect of polymers on the solubilization of various compounds in aqueous HPβCD solutions (Example 14); conditions: HPβCD with HPMC / HPβCD without polymer (S8)
Output spec: single numeric token, no unit.

Guide cases for solubility ratio, answers given:
>  <compound>
COc1ccc(O)c(C(C)(C)C)c1 [Butylated hydroxyanisole]

>  <number>
1.12

$$$$
>  <compound>
C=C1CC[C@H](O)C/C1=C/C=C1\CCC[C@]2(C)[C@@H]([C@H](C)CCCC(C)C)CC[C@@H]12 [Cholecalciferol]

>  <number>
1.14

$$$$
>  <compound>
CN(C)c1ccc(N=Nc2ccccc2)cc1 [Methylyellow]

>  <number>
1.09

$$$$
>  <compound>
COc1cc(C=O)ccc1O [Vanillin]

>  <number>
1.06

$$$$

Pending compound:
Lab book: solubility ratio of O=C(O)c1ccccc1O [Salicylic acid] noted as 1.06

###

experiment: physchem; conditions: 0.50% cmc, 10% hpβcd
readout type: solubility (µg/mL)
Numbers only; they are read as µg/mL.

CC(=O)Nc1nnc(S(N)(=O)=O)s1 [Acetazolamide, acetazolamide] yielded solubility of 3750
